The reported numbers originate from PubChem BioAssay (NCATS).

# assay_explanation: Primary redox qHTS assay for identification of artifact compounds. (AID 1845223)
# experimental_conditions: Amplex Red/HRP redox cycling with DTT, fluorescence; series mostly up to 53.8 µM
Results filed as inconclusive are left out. Activity calls are given as the source filed them. The call rests on the fitted dose curve; in most records, active means well fitted activation curve with a large enough effect; inconclusive means small, poorly fitted or top-dose-only effect; inactive means flat fitted curve, though single readings scatter.
measured_property: outcome

> print(dat)
                                   molecule  measured.property  assay.value
1  COc1ccc2cc(-c3nc(-c4ccc(S(C)=O)cc4)[nH]c3-c3ccncc3)ccc2c1 (stereo unspecified)            outcome     inactive
2           O=C(O)c1cc(-c2ccccc2)nc2ccccc12            outcome     inactive
3  CN(C)CCC(c1ccccc1)c1ccccn1 (stereo unspecified)            outcome     inactive
4  CCn1c(C(=O)N(C2CC2)C2CC2)cc2c3c(ncn3C)c(Nc3cc(C)n(C)n3)nc21            outcome     inactive
5  CC(C)(C)NC(=O)Nc1cccc(Nc2ncc(F)c(NC(C)(C)CO)n2)c1            outcome     inactive

Query: Fill blank: measured outcome of the molecule CC(C)C(=O)Nc1ncc(-c2cc(C(F)F)nn2-c2c(Cl)cccc2Cl)s1 is ____.
Reply: inactive
